Biological target: THR alpha (Homo sapiens)
Construct: expressed in transfected cells; host or cells: HEK293T (ATCC CRL-3216)
Sequence (P10827 1-410 isoform P10827-2): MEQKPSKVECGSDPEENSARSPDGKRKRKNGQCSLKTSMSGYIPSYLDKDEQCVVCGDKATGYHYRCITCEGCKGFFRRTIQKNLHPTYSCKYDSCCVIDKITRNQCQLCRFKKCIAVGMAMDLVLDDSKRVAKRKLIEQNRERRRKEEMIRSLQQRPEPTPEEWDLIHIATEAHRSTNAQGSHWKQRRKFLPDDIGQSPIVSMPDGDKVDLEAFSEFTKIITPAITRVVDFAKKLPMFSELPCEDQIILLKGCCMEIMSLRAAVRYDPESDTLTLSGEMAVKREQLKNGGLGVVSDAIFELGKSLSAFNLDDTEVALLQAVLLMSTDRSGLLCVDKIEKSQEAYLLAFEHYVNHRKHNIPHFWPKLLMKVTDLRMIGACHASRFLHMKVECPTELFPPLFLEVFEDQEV
Sequence (P19793 1-462 partner): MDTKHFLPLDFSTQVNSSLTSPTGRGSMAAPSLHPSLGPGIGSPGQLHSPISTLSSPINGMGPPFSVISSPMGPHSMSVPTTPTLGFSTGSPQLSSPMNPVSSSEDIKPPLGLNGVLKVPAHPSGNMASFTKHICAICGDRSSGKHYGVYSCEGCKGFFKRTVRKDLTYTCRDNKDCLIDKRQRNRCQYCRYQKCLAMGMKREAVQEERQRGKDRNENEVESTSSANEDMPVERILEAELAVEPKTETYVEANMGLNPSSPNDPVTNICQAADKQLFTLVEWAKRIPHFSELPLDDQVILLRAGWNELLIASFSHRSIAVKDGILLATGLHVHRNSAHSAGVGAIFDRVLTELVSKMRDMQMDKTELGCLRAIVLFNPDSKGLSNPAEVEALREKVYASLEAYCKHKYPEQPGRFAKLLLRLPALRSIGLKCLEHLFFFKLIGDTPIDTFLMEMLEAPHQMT
Test: HEK293T THR alpha/RXR luciferase reporter assay (Assay 2)
Format: cell-based
Conditions: Table 4; THR-alpha; Assay 2; read-out: Activity category Assay 2 (EC50, THR-alpha agonist activity)
metric-name: EC50

[
  {
    "compound": "Nc1nn(-c2cc(Cl)c(Oc3n[nH]c(=O)cc3-c3ccc4c(c3)CCCO4)c(Cl)c2)c(=O)[nH]c1=O [Compound 115]",
    "assay-target": "THR alpha (Homo sapiens)",
    "EC50": "> 10000 nM"
  },
  {
    "compound": "Nc1nn(-c2cc(Cl)c(Oc3cc(C4CCOCC4)c(=O)[nH]n3)c(Cl)c2)c(=O)[nH]c1=O [Compound 59]",
    "assay-target": "THR alpha (Homo sapiens)",
    "EC50": "> 10000 nM"
  }
]

Give EC50 for CC(C)c1cc(Oc2c(Cl)cc(-n3nc(N)c(=O)[nH]c3=O)cc2Br)n[nH]c1=O [Compound 80] 50 to 250 nM

Identify measured EC50 associated with CCCc1c[nH]c2ccc(Oc3c(Cl)cc(-n4nc(C#N)c(=O)[nH]c4=O)cc3Cl)cc12 [Compound 48] 250 to 1000 nM

For the compound Cc1cc(-n2nc(N)c(=O)[nH]c2=O)cc(Cl)c1Oc1cc(C(C)C)c(=O)[nH]n1 [Compound 37] , give its measured EC50 value. 50 to 250 nM

Tell me EC50 reported for Nc1nn(-c2cc(Cl)c(Oc3cc(C4(F)CCCC4)c(=O)[nH]n3)c(Cl)c2)c(=O)[nH]c1=O [Compound 144] 1000 to 10000 nM

Return EC50 for the following compound: C[C@H]1C[C@H](c2cc(Oc3c(Cl)cc(-n4nc(N)c(=O)[nH]c4=O)cc3Cl)n[nH]c2=O)C1 (single isomer, unassigned) [Compound 86-A] 250 to 1000 nM

Let me know recorded EC50 for CC(C)c1c[nH]c2ccc(Oc3c(Cl)cc(-n4nc(C#N)c(=O)[nH]c4=O)cc3Cl)cc12 [Compound 1] , thanks. 250 to 1000 nM

Give a short answer stating reported EC50 for Cc1cc(-c2cc(Oc3c(Cl)cc(-n4nc(N)c(=O)[nH]c4=O)cc3Cl)n[nH]c2=O)ccc1Cl [Compound 116] . > 10000 nM

Please supply the value of reported EC50 for the item Nc1nn(-c2cc(Cl)c(Oc3cc([C@H]4C[C@H](O)C4)c(=O)[nH]n3)c(Cl)c2)c(=O)[nH]c1=O [Compound 88-A] > 10000 nM

Answer with reported EC50 of Nc1nn(-c2cc(Cl)c(Oc3cc(C4CC(F)(F)C4)c(=O)[nH]n3)c(Cl)c2)c(=O)[nH]c1=O [Compound 106] 1000 to 10000 nM

Please report the measured EC50 for Cc1cc(-n2ncc(=O)[nH]c2=O)cc(C)c1Cc1cnc2[nH]cc(C(C)C)c2n1 [Compound 56] 50 to 250 nM

Quickly give me recorded EC50 for CC1(C)C(=O)Nc2ccc(Oc3c(Cl)cc(-n4nc(N)c(=O)[nH]c4=O)cc3Cl)cc21 [Compound 82] < 50 nM

Give the measured EC50 for Nc1nn(-c2cc(Cl)c(Oc3cc(Cc4ccc(O)cn4)c(=O)[nH]n3)c(Cl)c2)c(=O)[nH]c1=O [Compound 161] > 10000 nM

For the compound Cc1cc(-n2nc(N)c(=O)[nH]c2=O)cc(C)c1Cc1ccc2[nH]cc(C(C)C)c2n1 [Compound 55] , give its measured EC50 value. 50 to 250 nM
